assay: Pharmacokinetics of unencapsulated topotecan in plasma, tumor and BM-ISF of ES-2 tumor bearing mice; assay type: in vivo, BALB/c nude mice; conditions: BALB/c nude, mouse, iv; unencapsulated topotecan, tumor, single i.v. 2 mg/kg, ES-2 tumor bearing mice
MEASURE: MRT (h)
Express it in h; write the number only.

IN: Reported MRT for CC[C@@]1(O)C(=O)OCc2c1cc1n(c2=O)Cc2cc3c(CN(C)C)c(O)ccc3nc2-1 [TPT, Topotecan] : what is it?
OUT: 1.04

====

Experiment: Pharmacokinetics of unencapsulated topotecan in plasma, tumor and BM-ISF of ES-2 tumor bearing mice
Type: in vivo, BALB/c nude mice
Details: BALB/c nude, mouse, iv; unencapsulated topotecan, plasma, single i.v. 2 mg/kg, ES-2 tumor bearing mice
Description: Sucrose/histidine buffer and saline (Otsuka Pharmaceutical Factory, Tokushima, Japan) were used as the diluent for FF-10850 and TPT, respectively. […] To prepare the samples, methanol with 0.1% formic acid plus topotecan-d6 was added to plasma samples, while methanol with 0.1% formic acid was used for tumor and BM-ISF samples. […] Quantification was performed using MRM with the transitions of m/z at 422.0 → 377.1 for topotecan and 428.1 → 377.1 for topotecan-d6. […]
MEASURE: Cmax (µg/mL)
Express it in µg/mL; write the number only.

IN: Reported Cmax for CC[C@@]1(O)C(=O)OCc2c1cc1n(c2=O)Cc2cc3c(CN(C)C)c(O)ccc3nc2-1 : what is it?
OUT: 0.198

====

Assay: Pharmacokinetics of total topotecan in plasma, tumor and BM-ISF of ES-2 tumor bearing mice
Assay type: in vivo, BALB/c nude mice
Conditions: BALB/c nude, mouse, iv, tumor, single i.v. 2 mg/kg, ES-2 tumor bearing mice
Procedure: Sucrose/histidine buffer and saline (Otsuka Pharmaceutical Factory, Tokushima, Japan) were used as the diluent for FF-10850 and TPT, respectively. […] To prepare the samples, methanol with 0.1% formic acid plus topotecan-d6 was added to plasma samples, while methanol with 0.1% formic acid was used for tumor and BM-ISF samples. […] Quantification was performed using MRM with the transitions of m/z at 422.0 → 377.1 for topotecan and 428.1 → 377.1 for topotecan-d6. […]
MEASURE: Cmax (ng/g)
Express it in ng/g; write the number only.

IN: Reported Cmax for CC[C@@]1(O)C(=O)OCc2c1cc1n(c2=O)Cc2cc3c(CN(C)C)c(O)ccc3nc2-1 : what is it?
OUT: 546

====

assay: Pharmacokinetics of unencapsulated topotecan in plasma, tumor and BM-ISF of ES-2 tumor bearing mice; assay type: in vivo, BALB/c nude mice; details: BALB/c nude, mouse, iv; unencapsulated topotecan, BM-ISF, single i.v. 2 mg/kg, ES-2 tumor bearing mice
MEASURE: MRT (min)
Express it in min; write the number only.

IN: Reported MRT for CC[C@@]1(O)C(=O)OCc2c1cc1n(c2=O)Cc2cc3c(CN(C)C)c(O)ccc3nc2-1 [TPT, Topotecan] : what is it?
OUT: 36.4

====

assay: Pharmacokinetics of total topotecan in plasma, tumor and BM-ISF of ES-2 tumor bearing mice; format: in vivo, BALB/c nude mice; settings: BALB/c nude, mouse, iv, tumor, single i.v. 2 mg/kg, ES-2 tumor bearing mice
MEASURE: half-life (min)
Express it in min; write the number only.

IN: Reported half-life for CC[C@@]1(O)C(=O)OCc2c1cc1n(c2=O)Cc2cc3c(CN(C)C)c(O)ccc3nc2-1 : what is it?
OUT: 55.7
